Tested on: ragweed
Assay: Test C postemergence
Assay type: in vivo, Ambrosia artemisiifolia
Details: 125 g ai/ha, postemergence, 10 days; 0 to 100 scale, 0 no effect, 100 complete control
Assign Plant response rating, Ragweed to each entry below.

[Q] Can you share its Plant response rating, Ragweed? I mean this molecule: `COc1c(C)cc(-n2cnc(C(C)C)n2)cc1C(=O)N1C[C@H](C)Oc2c(Cl)cccc21`
[A] 0

[Q] Can you share its Plant response rating, Ragweed? I mean this molecule: `C[C@H]1CN(C(=O)c2cc(-n3cnc(C4CC4)n3)cc3c2OCCO3)c2cccc(Cl)c2O1`
[A] 80

[Q] Can you share its Plant response rating, Ragweed? I mean this molecule: `Cc1ccc(-n2cnc(C3(C)CC3)n2)cc1C(=O)N1C[C@H](C)Oc2c(Cl)cccc21`
[A] 70

[Q] Can you share its Plant response rating, Ragweed? I mean this molecule: `Cc1ccc(-n2cnc(C3(C(F)(F)F)CC3)n2)cc1C(=O)N1C[C@H](C)Oc2c(Cl)cccc21`
[A] 20

Others:
[Q] Can you share its Plant response rating, Ragweed? I mean this molecule: `Cc1ccc(-n2cnc(C3(C(F)(F)F)CCC3)n2)cc1C(=O)N1C[C@H](C)Oc2c(Cl)cccc21`
[A] 60
